Data origin: patent US7407939B2

Biological target: PKB (Homo sapiens, UniProt P31749)
Construct: His; HA; made in house
Sequence (P31749 whole entry, species assumed): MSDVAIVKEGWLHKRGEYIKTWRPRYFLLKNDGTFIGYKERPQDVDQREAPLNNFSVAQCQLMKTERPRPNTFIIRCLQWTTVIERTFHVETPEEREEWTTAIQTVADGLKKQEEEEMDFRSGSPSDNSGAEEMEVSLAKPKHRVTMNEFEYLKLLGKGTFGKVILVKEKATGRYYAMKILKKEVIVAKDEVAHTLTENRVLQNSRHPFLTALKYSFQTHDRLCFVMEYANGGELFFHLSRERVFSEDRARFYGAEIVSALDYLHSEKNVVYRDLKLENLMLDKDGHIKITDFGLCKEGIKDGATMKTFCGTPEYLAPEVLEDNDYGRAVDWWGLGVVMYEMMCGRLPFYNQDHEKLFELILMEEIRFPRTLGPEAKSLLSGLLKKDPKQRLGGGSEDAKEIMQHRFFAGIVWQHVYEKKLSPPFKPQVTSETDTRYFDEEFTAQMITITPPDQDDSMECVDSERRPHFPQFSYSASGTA
Assay: PKB in vitro kinase activity assay (soluble His-HA-PKB / SPA bead screening)
Format: biochemical
Conditions: 1 μM compound concentration, Assay 1
Where no end group is shown, it is not given here. Side-chain parts run from the residue outwards. [ ]: non-standard residue; d: D form. The star is where a group is joined. X1 = 5‑aminoethylsulfonamide isoquinoline, O=S(=O)(NCCN*)c1cccc2cnccc12; hLeu = CC(C)CC[C@H](N)C(=O)O; Nle = CCCC[C@H](N)C(=O)O; Orn = NCCC[C@H](N)C(=O)O; Dab = NCC[C@H](N)C(=O)O; Nva = CCC[C@H](N)C(=O)O; Abu = CC[C@H](N)C(=O)O; Dap = NC[C@H](N)C(=O)O; βAla = NCCC(=O)O
observed property: PKB-kinase (spa) Assay 1, % inhibition of kinase activity (%)
Numbers only; they are read as %.

60020-49: Arg-Pro-Arg-Abu-Glu(Gly-5-aminoethylsulfonamide isoquinoline)-Dab-Phe (RPR[Abu]E([Gly-X1])[Dab]F) :: 66
60020-36: Arg-Pro-Arg-Dap-Glu(Gly-5-aminoethylsulfonamide isoquinoline)-Orn-Hol (RPR[Dap]E([Gly-X1])[Orn][hLeu]) :: 69
60020-90: Arg-Pro-Arg-Nle-Glu(bAla-5-aminoethylsulfonamide isoquinoline)-Dab-Hol (RPR[Nle]E([βAla-X1])[Dab][hLeu]) :: 19
60020-37: Arg-Pro-Arg-Dap-Glu(Gly-5-aminoethylsulfonamide isoquinoline)-Ala-Phe (RPR[Dap]E([Gly-X1])AF) :: 53
60020-55: Arg-Pro-Arg-Abu-Glu(Gly-5-aminoethylsulfonamide isoquinoline)-Nva-Phe (RPR[Abu]E([Gly-X1])[Nva]F) :: 20

[Q] PKB-kinase (spa) Assay 1, % inhibition of kinase activity lookup needed for 60020-24: Arg-Pro-Arg-Abu-Glu(5-aminoethylsulfonamide isoquinoline)-Nva-Hol (RPR[Abu]E(X1)[Nva][hLeu]) , thanks.
[A] −17
